Data provenance: patent US20130230533A1

- system name: T1, Dimeric human CD48-mFc (human)
- T1 chain: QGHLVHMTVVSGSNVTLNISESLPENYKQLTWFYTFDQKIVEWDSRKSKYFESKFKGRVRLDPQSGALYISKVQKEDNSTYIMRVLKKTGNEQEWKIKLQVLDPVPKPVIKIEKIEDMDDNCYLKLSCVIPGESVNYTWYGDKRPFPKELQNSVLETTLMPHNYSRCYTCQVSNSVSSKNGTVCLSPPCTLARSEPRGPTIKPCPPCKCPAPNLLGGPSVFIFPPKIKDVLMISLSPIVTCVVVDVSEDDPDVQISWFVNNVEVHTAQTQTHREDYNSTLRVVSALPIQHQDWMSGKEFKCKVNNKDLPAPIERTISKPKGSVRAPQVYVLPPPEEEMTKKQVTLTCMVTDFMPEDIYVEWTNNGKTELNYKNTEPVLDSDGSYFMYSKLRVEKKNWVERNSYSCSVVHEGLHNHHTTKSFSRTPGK
- assay procedure: SPR (Biacore T100), 25 C, antibody captured by anti-Fc, dimeric CD48-mFc in solution
measurement name: Kd (nM)
# value in nM; strip the unit string

Here's what some known entries look like.
| binder | units of measure | Kd |
| --- | --- | --- |
| H4H1778P (antibody, human IgG4, V domains shown, Human IgG4 Fc (prefix H4H)) VH: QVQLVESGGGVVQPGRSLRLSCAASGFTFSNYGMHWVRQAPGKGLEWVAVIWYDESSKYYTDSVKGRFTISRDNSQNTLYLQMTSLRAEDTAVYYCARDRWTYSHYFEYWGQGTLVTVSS VL: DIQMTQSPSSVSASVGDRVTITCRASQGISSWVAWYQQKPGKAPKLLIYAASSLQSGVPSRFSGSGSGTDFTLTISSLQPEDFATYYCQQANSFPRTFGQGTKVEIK | nM | 0.0304 |
| H3M1766N (antibody, V domains shown, also called H2M1766N) VH: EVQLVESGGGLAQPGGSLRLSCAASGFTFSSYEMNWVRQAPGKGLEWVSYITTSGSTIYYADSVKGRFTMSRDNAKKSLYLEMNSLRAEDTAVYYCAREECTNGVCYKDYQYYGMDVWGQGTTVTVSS VL: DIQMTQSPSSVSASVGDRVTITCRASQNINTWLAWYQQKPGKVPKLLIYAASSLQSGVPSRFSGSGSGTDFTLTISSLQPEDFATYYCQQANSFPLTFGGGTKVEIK | nM | 0.51 |
| H4H1779P (antibody, human IgG4, V domains shown, Human IgG4 Fc (prefix H4H)) VH: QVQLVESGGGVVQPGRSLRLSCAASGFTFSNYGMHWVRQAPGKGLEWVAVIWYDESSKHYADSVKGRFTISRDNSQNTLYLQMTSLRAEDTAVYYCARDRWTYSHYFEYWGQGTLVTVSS VL: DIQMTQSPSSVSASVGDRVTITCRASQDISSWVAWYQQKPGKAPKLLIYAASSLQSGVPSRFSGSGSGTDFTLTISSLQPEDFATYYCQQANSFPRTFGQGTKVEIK | nM | 0.0151 |

Now let's try a different one.
q: Which Kd is listed for H4H1775P (antibody, human IgG4, V domains shown, Human IgG4 Fc (prefix H4H)) VH: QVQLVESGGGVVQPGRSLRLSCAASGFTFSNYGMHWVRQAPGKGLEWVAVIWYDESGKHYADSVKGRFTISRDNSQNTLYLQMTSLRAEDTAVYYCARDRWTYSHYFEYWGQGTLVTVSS VL: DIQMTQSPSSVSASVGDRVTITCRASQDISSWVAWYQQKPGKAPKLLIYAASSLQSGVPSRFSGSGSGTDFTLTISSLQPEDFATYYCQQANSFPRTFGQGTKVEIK ?
a: 0.0179
